Each recorded value in this set is attributed to patent US20230233569A1.

# study_system: KRAS G12D (Homo sapiens, UniProt P01116+P62937, G12D)
# Sequence (P01116 1-169 isoform P01116-2 G12D limits assumed): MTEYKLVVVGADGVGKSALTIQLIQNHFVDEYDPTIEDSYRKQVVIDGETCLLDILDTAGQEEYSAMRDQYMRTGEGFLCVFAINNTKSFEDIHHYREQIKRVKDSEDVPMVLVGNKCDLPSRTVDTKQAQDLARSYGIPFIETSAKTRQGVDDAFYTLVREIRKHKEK
# Sequence (P62937 whole entry): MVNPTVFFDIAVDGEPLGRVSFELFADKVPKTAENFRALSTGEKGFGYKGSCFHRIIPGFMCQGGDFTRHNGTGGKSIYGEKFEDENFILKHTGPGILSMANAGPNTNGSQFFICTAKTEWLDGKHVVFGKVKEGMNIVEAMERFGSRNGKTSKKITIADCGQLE
# procedure_summary: Ras-Raf disruption / FRET / MOA assay (BRAF RBD)
# Assay type: biochemical
# applied_conditions: KRAS G12D FRET data IC50, Ras-Raf disruption, with Cyclophilin A
Catalogue of IC50 values

In the examples that follow, each entry is paired with its recorded IC50.
# molecule, study_system, IC50
measured = [
    ("CCn1c(-c2cccnc2[C@H](C)OC)c2c3cc(ccc31)-c1cc(O)cc(c1)C[C@H](NC(=O)[C@H](C(C)C)N(C)C(=O)CN(C)C(=O)[C@H]1N[C@@H]1C1CC1)C(=O)N1CCC[C@H](N1)C(=O)OCC(C)(C)C2 [Example 135]", "KRAS G12D (Homo sapiens, UniProt P01116+P62937, G12D)", "10 to 100 nM"),
    ("CCn1c(-c2cccnc2[C@H](C)OC)c2c3cc(ccc31)-c1cc(O)cc(c1)C[C@H](NC(=O)[C@H](C(C)C)N(C)C(=O)CN(C)C(=O)[C@H]1CN1CC(=O)N(C)C)C(=O)N1CCC[C@H](N1)C(=O)OCC(C)(C)C2 (stereo partly shown) [Example 270]", "KRAS G12D (Homo sapiens, UniProt P01116+P62937, G12D)", "100 to 1000 nM"),
    ("CCn1c(-c2cccnc2[C@H](C)OC)c2c3cc(ccc31)-c1cc(O)cc(c1)C[C@H](NC(=O)[C@H](C1CCCC1)N(C)C(=O)CN(C)C(=O)[C@@H]1N[C@@H]1C1(OC)CC1)C(=O)N1CCC[C@H](N1)C(=O)OCC(C)(C)C2 (single isomer, unassigned) [Example 323]", "KRAS G12D (Homo sapiens, UniProt P01116+P62937, G12D)", "100 to 1000 nM"),
]

Consider the record given below.
Give IC50 (KRAS G12D (Homo sapiens, UniProt P01116+P62937, G12D)) of the following molecule: CCn1c(-c2cccnc2[C@H](C)OC)c2c3cc(ccc31)-c1cc(O)cc(c1)C[C@H](NC(=O)[C@H](C(C)C)N(C)C(=O)CN(C)C(=O)[C@H]1CN1CCO)C(=O)N1CCC[C@H](N1)C(=O)OCC(C)(C)C2 (stereo partly shown) [Example 161] 100 to 1000 nM

* * *

# study_system: KRAS Q61H (Homo sapiens, UniProt P01116+P62937, Q61H)
# Sequence (P01116 1-169 isoform P01116-2 Q61H limits assumed, one chain of several): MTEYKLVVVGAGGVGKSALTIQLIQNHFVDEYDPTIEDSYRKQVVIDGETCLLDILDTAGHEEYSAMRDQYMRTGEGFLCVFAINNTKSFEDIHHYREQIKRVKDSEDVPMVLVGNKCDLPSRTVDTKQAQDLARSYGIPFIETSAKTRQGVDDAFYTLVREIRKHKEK
# procedure_summary: Ras-Raf disruption / FRET / MOA assay (BRAF RBD)
# Format: biochemical
pIC50: −log10 of the molar value.
property_measured: pIC50

Value lookup for pIC50; key = CCn1c(-c2cccnc2[C@H](C)OC)c2c3cc(ccc31)-c1cc(O)cc(c1)C[C@H](NC(=O)[C@H](C(C)C)N(C)C(=O)CN(C)C(=O)[C@@H]1CN1CCCC#N)C(=O)N1CCC[C@H](N1)C(=O)OCC(C)(C)C2 (stereo partly shown) [Example 274] 7.00 to 8.00

Subsequent entry: CCn1c(-c2cccnc2[C@H](C)OC)c2c3cc(ccc31)-c1cc(O)cc(c1)C[C@H](NC(=O)[C@H](C(C)C)N(C)C(=O)CN(C)C(=O)[C@@H]1N[C@@H]1C1COC1)C(=O)N1CCC[C@H](N1)C(=O)OCC(C)(C)C2 [Example 281] > 8.00

Subsequent entry: CCn1c(-c2cccnc2[C@H](C)OC)c2c3cc(ccc31)-c1cc(cc(C(F)F)c1)C[C@H](NC(=O)[C@H](C1CCCC1)N(C)C(=O)CN(C)C(=O)[C@@H]1N[C@@H]1C1CC1)C(=O)N1CCC[C@H](N1)C(=O)OCC(C)(C)C2 [Example 320] 6.00 to 7.00

Subsequent entry: CCn1c(-c2cc(N3CCN(C)CC3)cnc2[C@H](C)OC)c2c3cc(ccc31)-c1cc(O)cc(c1)C[C@H](NC(=O)[C@H](C1CCCC1)N(C)C(=O)CN(C)C(=O)[C@H]1CN1)C(=O)N1CCC[C@H](N1)C(=O)OCC(C)(C)C2 [Example 209] > 8.00

* * *

# study_system: KRAS G12S (Homo sapiens, UniProt P01116+P62937, G12S)
# Sequence (P01116 1-169 isoform P01116-2 G12S limits assumed): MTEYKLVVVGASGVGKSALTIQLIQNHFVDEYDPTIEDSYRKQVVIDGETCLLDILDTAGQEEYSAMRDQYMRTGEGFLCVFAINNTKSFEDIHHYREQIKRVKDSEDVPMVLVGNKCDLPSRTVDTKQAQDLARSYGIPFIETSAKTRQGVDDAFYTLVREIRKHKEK
# Sequence (P62937 whole entry): as the sequence (P62937 whole entry) above
# procedure_summary: Ras-Raf disruption / FRET / MOA assay (BRAF RBD)
# Format: biochemical
# applied_conditions: Ras-Raf disruption, with Cyclophilin A; read-out: KRAS G12S FRET data IC50
property_measured: IC50

# compound, study_system, IC50
rows = [
    ("CCn1c(-c2cccnc2[C@H](C)OC)c2c3cc(ccc31)-c1cc(O)cc(c1)C[C@H](NC(=O)[C@H](C1CCCC1)N(C)C(=O)[C@H]1CCN(C[C@H]3CN3)C1=O)C(=O)N1CCC[C@H](N1)C(=O)OCC(C)(C)C2 [Example 58]", "KRAS G12S (Homo sapiens, UniProt P01116+P62937, G12S)", "10 to 100 nM"),
]

Consider the record given below.
Value lookup for IC50; key = CCn1c(-c2cccnc2[C@H](C)OC)c2c3cc(ccc31)-c1cc(O)cc(c1)C[C@H](NC(=O)[C@H](C(C)C)N(C)C(=O)C1CCN(C(=O)[C@H]3CN3)CC1)C(=O)N1CCC[C@H](N1)C(=O)OCC(C)(C)C2 [Example 86] 10 to 100 nM

* * *

# study_system: KRAS G13C (Homo sapiens, UniProt P01116+P62937, G13C)
# Sequence (P01116 1-169 isoform P01116-2 G13C, one chain of several): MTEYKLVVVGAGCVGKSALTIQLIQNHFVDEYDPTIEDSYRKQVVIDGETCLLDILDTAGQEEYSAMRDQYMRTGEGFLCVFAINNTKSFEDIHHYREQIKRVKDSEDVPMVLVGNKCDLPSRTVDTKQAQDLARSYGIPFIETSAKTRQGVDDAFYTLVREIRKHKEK
# procedure_summary: Disruption of BRAF RBD interaction with Ras (FRET / MOA assay, with Cyclophilin A)
# Assay type: biochemical
# applied_conditions: KRAS G13C FRET data, IC50
pIC50: −log10 of the molar value.
property_measured: pIC50

Value lookup for pIC50; key = CCn1c(-c2cnccc2COC)c2c3cc(ccc31)-c1cc(O)cc(c1)C[C@H](NC(=O)[C@H](C(C)C)N(C)C(=O)C1CCN(C)CC1)C(=O)N1CCC[C@H](N1)C(=O)OCC(C)(C)C2 6.00 to 7.00

Subsequent entry: CCn1c(-c2cnccc2COC)c2c3cc(ccc31)-c1cc(O)cc(c1)C[C@H](NC(=O)[C@H](C(C)C)N(C)C(=O)[C@H]1CCN(S(=O)(=O)N3CC(O)C3)C1)C(=O)N1CCC[C@H](N1)C(=O)OCC(C)(C)C2 6.00 to 7.00

* * *

# study_system: NRAS G12C (Homo sapiens, UniProt P01111+P62937, G12C)
# Sequence (P01111 whole entry G12C): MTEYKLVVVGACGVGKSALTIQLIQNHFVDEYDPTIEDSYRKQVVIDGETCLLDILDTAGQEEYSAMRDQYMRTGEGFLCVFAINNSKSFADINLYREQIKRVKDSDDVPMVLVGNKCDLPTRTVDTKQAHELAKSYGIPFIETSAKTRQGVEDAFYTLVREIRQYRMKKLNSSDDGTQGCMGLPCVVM
# Sequence (P62937 whole entry): as the sequence (P62937 whole entry) above
# procedure_summary: Ras-Raf disruption / FRET / MOA assay (BRAF RBD)
# Assay type: biochemical
# applied_conditions: NRAS G12C FRET data IC50, NRAS G12C
pIC50: −log10 of the molar value.
property_measured: pIC50

In the examples that follow, each entry is paired with its recorded pIC50.
# compound, pIC50
rows = [
    ("CCn1c(-c2cccnc2[C@H](C)OC)c2c3cc(ccc31)-c1cc(O)cc(c1)C[C@H](NC(=O)[C@H](C(C)C)N(C)C(=O)CN(C)C(=O)[C@H]1CN1)C(=O)N1CCC[C@H](N1)C(=O)OCC(C)(C)C2 (single isomer, unassigned) [Example 42B]", "6.00 to 7.00"),
    ("CCn1c(-c2cccnc2[C@H](C)OC)c2c3cc(ccc31)-c1cc(O)cc(c1)C[C@H](NC(=O)[C@H](C(C)C)N(C)C(=O)C13CC(CN1C(=O)[C@@H]1CN1)C3)C(=O)N1CCC[C@H](N1)C(=O)OCC(C)(C)C2", "6.00 to 7.00"),
    ("CCn1c(-c2cccnc2[C@H](C)OC)c2c3cc(ccc31)-c1cc(O)cc(c1)C[C@H](NC(=O)[C@H](C(C)C)N(C)C(=O)CN(C)C(=O)[C@H]1CN1Cc1ccccc1F)C(=O)N1CCC[C@H](N1)C(=O)OCC(C)(C)C2 (stereo partly shown)", "> 8.00"),
]

Value lookup for pIC50; key = CCn1c(-c2cccnc2[C@H](C)OC)c2c3cc(ccc31)-c1csc(n1)C[C@H](NC(=O)[C@H](C1CCCC1)N(C)C(=O)CN(C)C(=O)[C@H]1CN1)C(=O)N1CCC[C@H](N1)C(=O)OCC(C)(C)C2 6.00 to 7.00

* * *

# study_system: KRAS G13C (Homo sapiens, UniProt P01116+P62937, G13C)
# procedure_summary: Disruption of BRAF RBD interaction with Ras (FRET / MOA assay, with Cyclophilin A)
# Assay type: biochemical
# applied_conditions: read-out: KRAS G13C FRET data, IC50
pIC50: −log10 of the molar value.
property_measured: pIC50

# compound, recorded_measurement
measured = [
    ("CCn1c(-c2cccnc2[C@H](C)OC)c2c3cc(ccc31)-c1csc(n1)C[C@H](NC(=O)[C@H](C(C)C)N(C)C(=O)N1CC(NC)C1)C(=O)N1CCC[C@H](N1)C(=O)OCC(C)(C)C2 (atropisomer, axis not shown)", "6.00 to 7.00"),
    ("CCn1c(-c2cccnc2[C@H](C)OC)c2c3cc(ccc31)-c1cc(O)cc(c1)C[C@H](NC(=O)[C@H](C(C)C)N(C)C(=O)[C@H]1CCN(C)C1)C(=O)N1CCC[C@H](N1)C(=O)OCC(C)(C)C2", "7.00 to 8.00"),
    ("CCn1c(-c2cnccc2COC)c2c3cc(ccc31)-c1cc(O)cc(c1)C[C@H](NC(=O)[C@H](C(C)C)N(C)C(=O)OC1CN(C)C1)C(=O)N1CCC[C@H](N1)C(=O)OCC(C)(C)C2", "7.00 to 8.00"),
    ("CCn1c(-c2cccnc2[C@H](C)OC)c2c3cc(ccc31)-c1csc(n1)[C@@H](O)[C@H](NC(=O)[C@H](C(C)C)N(C)C(=O)N1CC(N(C)C)C1)C(=O)N1CCC[C@H](N1)C(=O)OCC(C)(C)C2 (atropisomer, axis not shown)", "6.00 to 7.00"),
]

Value lookup for pIC50; key = CCn1c(-c2cccnc2[C@H](C)OC)c2c3cc(ccc31)-c1csc(n1)C[C@H](NC(=O)[C@H](C(C)C)N(C)C(=O)N1CC[C@@H](O)C1)C(=O)N1CCC[C@H](N1)C(=O)OCC(C)(C)C2 (atropisomer, axis not shown) 6.00 to 7.00

Subsequent entry: CCn1c(-c2cc(C3CCN(C)CC3)cnc2[C@H](C)OC)c2c3cc(ccc31)-c1csc(n1)C[C@H](NC(=O)[C@H](C(C)C)N(C)C(=O)N1CC(C3COC3)C1)C(=O)N1CCC[C@H](N1)C(=O)OCC(C)(C)C2 7.00 to 8.00
